test: AUC (infinity) in mouse at 3 mg/kg, po; format: ADME, organism-based; set-up: time infinity, route oral, dose 3 mg/kg; details: in vivo
measured.parameter: AUC(0-inf) (ng·h/mL)

1) CC(C)C[C@](C)(N)COc1ccc(-c2ccnc(C(F)F)c2)nc1C(F)F	5780

----------
experiment: Protein binding in mouse plasma assessed as unbound fraction at 10 uM measured after 5 hrs by LC-MS/MS analysis; format: ADME, cell-free
measured.parameter: fraction unbound at 5 h, 10 µM

1. CC(C)C[C@](C)(N)COc1ccc(-c2ccnc(C(F)F)c2)cc1C(F)F	0.018
2. CC(C)C[C@](C)(N)COc1ccc(-c2ccnc(C(F)F)c2)cc1C#N	0.079
3. CC(C)C[C@](C)(N)COc1ccc(-c2ccnc(C(F)F)c2)nc1C(F)F	0.046
4. Cc1cc(-c2ccc(OC[C@@](C)(N)CC(C)C)c(C(F)(F)F)c2)ccn1	0.017
5. Cc1cc(-c2ccc(OC[C@@](C)(N)CC(C)C)c(C(F)F)c2)ccn1	0.02
6. CC(C)C[C@](C)(N)COc1ccc(-c2ccnc(C(F)F)c2)cc1C(F)(F)F	0.002
